test: clinical
experimental.conditions: both, human, in vivo, 3.8 mg, AUCinf, Median
parameter: AUC(0-inf)

>>> df
                         chemical_structure   parameter  recorded_measurement
0  CN(C)CCc1c[nH]c2ccc(C[C@H]3COC(=O)N3)cc12  AUC(0-inf)          32.2 ng·h/mL

* * *

test: clinical
experimental.conditions: both, human, in vivo
Method: The final treatment administered was 3.8 mg on a 10 cm^2 patch using an applicator with 0.52 Joule of application energy in the intracutaneous microneedle system described herein. The products tested were: This was a single-center, open-label, randomized five-way crossover study (Part 1) followed by a sequential study of two additional treatments (Parts 2 and 3). […] After completion of the seven dosing days, subjects were assessed one final time and dismissed from the study. […]
parameter: Tmax, Median (min)

>>> print(df.to_string())
                                   compound  recorded_measurement
0  CN(C)CCc1c[nH]c2ccc(C[C@H]3COC(=O)N3)cc12 [Zolmitriptan, zolmitriptan]                  17.5

* * *

test: clinical
experimental.conditions: both, human, in vivo, 3.8 mg, AUC2 hrs, Mean (SD)
parameter: AUC(0-t) (ng·h/mL)

                         chemical_structure  recorded_measurement
0  CN(C)CCc1c[nH]c2ccc(C[C@H]3COC(=O)N3)cc12                  19.3
